// data source = PubChem BioAssay (NCI)

Tested on: TK-10 renal
Test summary: NCI-60 one-dose screen, 48 h (100 = growth as untreated, 0 = no growth, -100 = all killed)
Study conditions: 10 µM unless noted
About 83,000 compounds went through this panel and 20% of them were active in at least one assay; those are over-represented in the sample as a whole. Activity calls are given as the source filed them. Rule for the calls: active = growth percent below 10; inactive = the rest.
Experimental endpoint: growth

* COc1cc(OC)c2c(=O)cc(-c3ccccc3)oc2c1 | 85.9% (inactive)
* COC(=O)[C@H](Cc1cn(C)cn1)NC(=O)[C@@H](NC(=O)Nc1cc(C(F)(F)F)cc(C(F)(F)F)c1)C(C)(C)C | -82% [100 µM] (active)
* CC(=O)Nc1nc(C)c(C(=O)N/N=C/c2cccs2)s1 | 144% (inactive)
* Nc1nc2c(c3ncncc13)C(c1cccc(C(F)(F)F)c1)Cc1ncncc1-2 (stereo not drawn) | 50.6% (inactive)
* O=Nc1ccc(O)c2ccccc12 | 5.45% (active)

Form: item `COc1ccc(Cn2cc3c(c2)-c2oncc2CC3)cc1OC` ; test system TK-10 renal; growth: 65.2% (inactive)

The observed growth for `CC(=O)Nc1ccc(S(=O)(=O)Cl)cc1` when tested with TK-10 renal stands at 100% (inactive)
